System: NCI/ADR-RES ovarian
Assay notes: NCI tumour cell line growth inhibition, 48 h
Observed property: GI50

Below, each entry is followed by its recorded GI50 result.
>  <Compound>
COc1ccc(C(=O)c2cc3c(N)c(C(=O)Nc4cccc5ccccc45)sc3nc2C)cc1

>  <Assayed target>
NCI/ADR-RES ovarian

>  <GI50>
181 nM

$$$$
>  <Compound>
CCOC(=O)c1cnc2oc3ccc(O)cc3c2c1-c1ccccc1

>  <Assayed target>
NCI/ADR-RES ovarian

>  <GI50>
4770 nM

$$$$

Then there is this compound:
Asked: Please look up its GI50: COc1ccc2c(c1)C(=O)c1c-2c(N(C)C)nc2ccccc12
Given back: > 100000 nM

Hey, just so you know, these numbers are from PubChem BioAssay (NCI).
